- MEASURED ON: T1, CD3 epsilon homodimer protein (UniProt P07766 23-126)
- T1 construct: also called CD3 (CD3 epsilon)
- EXPERIMENTAL DETAILS: SPR, antibody over immobilised CD3e homodimer;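 further: SPR at 25 °C with CD3 epsilon homodimer amine-coupled to a CM4 sensor chip and antibody flowed over as analyte in HBS-EP+ running buffer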
Listed below: KD ratio to GLS3000 values for each entry.
Hey, just send me the number, nothing else.

Record CE115HA000/GLS3000 S25T (antibody, IgG1, name in Kabat numbering, V domains shown, one-arm IgG1) VH: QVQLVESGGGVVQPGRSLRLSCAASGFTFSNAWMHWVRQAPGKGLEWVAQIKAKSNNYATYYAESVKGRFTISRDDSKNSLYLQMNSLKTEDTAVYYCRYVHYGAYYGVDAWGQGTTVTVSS VL: DIVMTQSPLSLPVTPGEPASISCRTSQSLVHSNRNTYLHWYQQKPGQAPRLLIYKVSNRFSGVPDRFSGSGSGTDFTLKISRVEAEDVGVYYCGQGTQVPYTFGQGTKLEIK , field KD ratio to GLS3000: 0.75

Record CE115HA000/GLS3000 Y32D (antibody, IgG1, name in Kabat numbering, V domains shown, one-arm IgG1) VH: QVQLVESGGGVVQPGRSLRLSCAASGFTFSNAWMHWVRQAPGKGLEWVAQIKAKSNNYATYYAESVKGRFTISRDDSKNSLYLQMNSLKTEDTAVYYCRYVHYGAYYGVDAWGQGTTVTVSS VL: DIVMTQSPLSLPVTPGEPASISCRSSQSLVHSNRNTDLHWYQQKPGQAPRLLIYKVSNRFSGVPDRFSGSGSGTDFTLKISRVEAEDVGVYYCGQGTQVPYTFGQGTKLEIK , field KD ratio to GLS3000: 25.9

For the next question, use this binder.
Record CE115HA000/GLS3000 S56F (antibody, IgG1, name in Kabat numbering, V domains shown, one-arm IgG1) VH: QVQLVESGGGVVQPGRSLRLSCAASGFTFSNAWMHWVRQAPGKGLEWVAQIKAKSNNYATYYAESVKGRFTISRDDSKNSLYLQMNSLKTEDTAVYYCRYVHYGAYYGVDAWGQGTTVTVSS VL: DIVMTQSPLSLPVTPGEPASISCRSSQSLVHSNRNTYLHWYQQKPGQAPRLLIYKVSNRFFGVPDRFSGSGSGTDFTLKISRVEAEDVGVYYCGQGTQVPYTFGQGTKLEIK , field KD ratio to GLS3000: 1.12

Each recorded value in this set is attributed to patent US20210388087A1.
